Assay: Antiplatelet activity against citreated rabbit platelet assessed as arachidonic acid-induced platelet aggregation
Format: functional, cell-based
Settings: Oryctolagus cuniculus
metric_name: IC50 (µM)

1: Oc1ccc([C@@H]2c3c(O)cc4c5c3[C@@H]([C@@H](c3ccc(O)cc3)c3c(O)cc(O)cc3[C@@H]5[C@@H](c3ccc(O)cc3)O4)[C@H]2c2cc(O)cc(O)c2)cc1
2: O=C1C=C(/C=C/c2ccc(O)cc2)[C@H]2C(=O)[C@@H]1[C@H](c1ccc(O)cc1)[C@H]2c1cc(O)cc(O)c1
In: Of 1 and 2 , whose reported IC50 is the larger number? Your answer should be the label attached to the chosen record.
Out: 2
